Target: T1, Mcl-1, Q07820
T1 chain: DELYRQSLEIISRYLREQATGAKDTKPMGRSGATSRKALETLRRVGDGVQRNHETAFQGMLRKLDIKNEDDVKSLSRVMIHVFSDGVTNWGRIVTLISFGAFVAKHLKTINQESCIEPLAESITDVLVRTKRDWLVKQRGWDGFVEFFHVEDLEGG
Test: peptide SPOT array, c-Myc-tagged receptor at 1 uM or 100 nM, anti-c-Myc-Cy3
METRIC NAME: SPOT signal as a fraction of Bim BH3's signal on the same receptor and array
Just the number, please, no unit after it.

Problem: Sample MSILTIASAVLEFVGDGIYNNTMGHV [TAP1] — what was its SPOT signal as a fraction of Bim BH3's signal on the same receptor and array?
Solution: 0.05

Problem: Sample WVKSIRICTPMGKLLDSCHPLTRKVP [PROK2] — what was its SPOT signal as a fraction of Bim BH3's signal on the same receptor and array?
Solution: 0.56

Problem: Sample PSECETLGSNLGHNLDLLNENNILAK [ZFP90] — what was its SPOT signal as a fraction of Bim BH3's signal on the same receptor and array?
Solution: 0.04

Problem: Sample SEIMHSFAKCDEVMGDGCLNNEHFEE [IPO5] — what was its SPOT signal as a fraction of Bim BH3's signal on the same receptor and array?
Solution: 0.04
